Target: HSV polymerase (Human herpesvirus 1)
Sequence (P04293 whole entry): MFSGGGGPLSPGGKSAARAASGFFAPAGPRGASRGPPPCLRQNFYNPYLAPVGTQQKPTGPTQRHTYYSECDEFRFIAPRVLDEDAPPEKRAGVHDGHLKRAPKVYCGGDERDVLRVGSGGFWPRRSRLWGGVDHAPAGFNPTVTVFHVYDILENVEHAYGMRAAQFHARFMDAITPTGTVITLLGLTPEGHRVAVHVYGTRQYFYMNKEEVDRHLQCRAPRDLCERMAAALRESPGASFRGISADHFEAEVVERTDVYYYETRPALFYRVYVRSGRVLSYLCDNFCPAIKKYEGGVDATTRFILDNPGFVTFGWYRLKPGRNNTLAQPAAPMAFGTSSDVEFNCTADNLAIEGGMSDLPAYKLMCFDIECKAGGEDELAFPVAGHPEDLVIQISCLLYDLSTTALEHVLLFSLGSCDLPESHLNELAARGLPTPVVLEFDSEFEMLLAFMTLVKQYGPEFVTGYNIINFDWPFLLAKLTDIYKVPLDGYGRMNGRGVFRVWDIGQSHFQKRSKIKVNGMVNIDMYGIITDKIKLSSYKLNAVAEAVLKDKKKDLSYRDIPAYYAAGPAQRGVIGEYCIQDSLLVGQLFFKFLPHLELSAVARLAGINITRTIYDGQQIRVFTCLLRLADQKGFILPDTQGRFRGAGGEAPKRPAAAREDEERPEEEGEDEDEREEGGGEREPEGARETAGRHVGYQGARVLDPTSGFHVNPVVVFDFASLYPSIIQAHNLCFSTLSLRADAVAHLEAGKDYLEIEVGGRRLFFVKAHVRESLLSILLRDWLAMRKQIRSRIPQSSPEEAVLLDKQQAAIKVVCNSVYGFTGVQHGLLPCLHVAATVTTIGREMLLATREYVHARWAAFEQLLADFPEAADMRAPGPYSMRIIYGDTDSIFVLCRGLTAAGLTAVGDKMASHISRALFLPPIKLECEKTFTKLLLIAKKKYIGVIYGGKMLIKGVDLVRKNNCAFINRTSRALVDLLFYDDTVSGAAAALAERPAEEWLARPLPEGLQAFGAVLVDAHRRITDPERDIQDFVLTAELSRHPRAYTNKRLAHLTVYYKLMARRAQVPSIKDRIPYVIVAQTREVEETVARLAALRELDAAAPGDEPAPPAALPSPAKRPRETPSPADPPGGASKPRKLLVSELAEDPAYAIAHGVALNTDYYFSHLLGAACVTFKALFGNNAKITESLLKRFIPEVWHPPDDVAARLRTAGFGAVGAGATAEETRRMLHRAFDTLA
Where a name gives a salt, the structure may show the parent alone.
recorded_metric: IC50 (nM)

Bench note, HSV polymerase (Human herpesvirus 1): O=C1CCn2cc(C(=O)NCc3ccc(Cl)cc3)c(=O)c3cc(CN4CCOCC4)cc(c32)N1 , IC50 reads 280

1: O=C(NCc1ccc(Cl)cc1)c1cn2c(=O)[nH]c3cc(CN4CCOCC4)cc(c1=O)c32
2: O=C(NCc1ccc(Cl)cc1)c1cn2c3c(cc(CN4CCOCC4)cc3c1=O)N=C(NCc1ccccc1)C2
3: CC1C(=O)Nc2cc(CN3CCOCC3)cc3c(=O)c(C(=O)NCc4ccc(Cl)cc4)cn1c23 (centres unmarked) [Example 8, hydrobromide]
# desc sort on IC50 across 3 compounds Please list each label once, in the requested order.
1, 2, 3
